biological target: T1, proprotein convertase subtilisin/kexin type 9 (PCSK9) (human, UniProt Q8NBP7 31-152); assay: phage spot ELISA
T1 construct: domain: prodomain; Recombinant; tag not written as a part; also called rec.PCSK9; His-PCSK9
T1 sequence (Q8NBP7 31-152 limits assumed, chain 1 of 2): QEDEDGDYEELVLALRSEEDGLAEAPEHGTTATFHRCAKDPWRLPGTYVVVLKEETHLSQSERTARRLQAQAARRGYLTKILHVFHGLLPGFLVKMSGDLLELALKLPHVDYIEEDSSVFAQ
T1 sequence (Q8NBP7 153-692 limits assumed, chain 2 of 2): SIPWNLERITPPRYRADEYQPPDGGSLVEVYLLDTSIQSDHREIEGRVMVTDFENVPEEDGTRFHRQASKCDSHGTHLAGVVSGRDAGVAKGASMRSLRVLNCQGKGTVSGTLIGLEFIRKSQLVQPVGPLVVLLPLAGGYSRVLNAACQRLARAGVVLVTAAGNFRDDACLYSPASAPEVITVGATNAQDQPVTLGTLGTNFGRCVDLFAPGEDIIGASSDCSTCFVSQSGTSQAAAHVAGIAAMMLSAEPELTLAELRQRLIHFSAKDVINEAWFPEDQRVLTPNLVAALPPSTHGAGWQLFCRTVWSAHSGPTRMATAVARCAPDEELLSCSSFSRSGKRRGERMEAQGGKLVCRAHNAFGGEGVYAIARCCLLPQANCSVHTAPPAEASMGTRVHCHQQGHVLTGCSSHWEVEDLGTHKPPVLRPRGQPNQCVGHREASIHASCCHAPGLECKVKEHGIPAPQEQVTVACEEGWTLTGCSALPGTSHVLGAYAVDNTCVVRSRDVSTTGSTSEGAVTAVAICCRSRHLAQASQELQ
Ends that are not written are not given here.
Property measured: binding result

• SGCWTYLRGGCSVT (not fully specified (bridges); cysteine pairing not given here, phage clone without anchor) [SEQ ID NO 373] = binds
• TAFTSWEEYLDWVGSGCVKVGLSWIGDCNS (phage clone) [SEQ ID NO 334] = binds
• TAFTSWEEYLDWVGSGKNNYAYLINMPRAPGI (phage clone) [SEQ ID NO 325] = binds

Origin of the recorded values: patent US20190177366A1
